Every entry's value here was drawn from PubChem BioAssay (Tox21).

Method: qHTS assay to identify small molecule antagonists of the retinoid acid receptor (RAR) signaling pathway - cell viability counter screen (AID 1159551); note: nearly all actives have a fitted effect of over 35% in size
Measurement conditions: C3RL4 cells viability, ATP luminescence (CellTiter-Glo), 6 h; series mostly up to 92.4 µM
Results filed as inconclusive are left out. Active and inactive are the calls of the source. Calls come from the whole dose curve; as a rule, active = well fitted cell-killing curve with a large enough effect in the repeat runs; inconclusive = weak or mixed curves, or effect the other way; inactive = flat fitted curve, though single readings scatter.
Possible outcomes: active, inactive

In [3]: df
Out[3]:
                                   molecule  class_name
0                           CC(=O)c1ccccc1N    inactive
1  O=C1c2c(O)ccc([N+](=O)[O-])c2C(=O)c2c([N+](=O)[O-])ccc(O)c21      active
2      CCCN(CCc1cccs1)[C@H]1CCc2c(O)cccc2C1    inactive
3                                C=C(C)CCCC    inactive
4                             Cc1cccc(Br)c1    inactive
